B1: EEHEE_rd4_0469 (parent)
chain: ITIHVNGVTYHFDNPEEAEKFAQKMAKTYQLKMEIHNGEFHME

Variants of: B1
EXPERIMENT SUMMARY: folding stability dG (cDNA display proteolysis); higher = more stable
MEASUREMENT SETUP: PBS, room temperature
Assign YES whenever folding stability dG does not fall below 1 kcal/mol; assign NO whenever it does.

- MUTATION ID: "V5F"
  CLASS NAME: "YES"
- MUTATION ID: "E17S"
  CLASS NAME: "YES"
- MUTATION ID: "E43N"
  CLASS NAME: "YES"
- MUTATION ID: "E34H"
  CLASS NAME: "YES"
- MUTATION ID: "N37R"
  CLASS NAME: "NO"
- MUTATION ID: "G7L"
  CLASS NAME: "YES"
